These measurements were taken from the RNAGym collection of RNA variant scans (doi:10.1073/pnas.2313332121).

Below: a set of entries, each annotated with reported polymerase ribozyme fitness (log ratio).
B1: TPR t1 (parent)
chain: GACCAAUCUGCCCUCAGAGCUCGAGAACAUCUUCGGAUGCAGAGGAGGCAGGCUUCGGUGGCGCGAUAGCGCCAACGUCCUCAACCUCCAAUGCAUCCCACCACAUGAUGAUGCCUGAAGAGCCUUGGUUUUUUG

- Variants of: B1
- assay remarks: polymerase ribozyme fitness, log enrichment relative to wild type (log ratio); higher = more active; in vitro selection for triplet polymerase activity

mutation code	polymerase ribozyme fitness (log ratio)
G61A A121U	2.32
G63A C94A	-0.982
A90C C101A	-2.32
A18U C70A G113A G122A	-4.58
A27U G71U G93U	-5.1
G42A U54C U132A	-1.62
C53U G63U A90C C104A A121G C123A	-4.29
U87A C101U	0.0521
C40A G69C C85G G110U U112C	-6.63
C86U C89U	-0.118
C12U C28A C40U C73U	-4.89
C8A A46C C56G G127A	-3.01
G25C C31G C34U A43C U112C	-6.28
C4U C15U	-1.62
C8G U9G C28G G42U G48U U55A C104U G120C	-3.54
C72A A121G	1.6
U30A C104A	-6.42
C11A G60U U112A A118U	0.776
G93C U130G	-1.51
C11A G48U G60U C123A	0.672
C12A C40U U87G	-1.56
C11A C70A	-2.06
C13U G17U C49U A50C	-2.06
C73U C115G U132A	-1.49
